These data points were gathered from patent US20090280138A1.

- target system: T1, MHC class I allele A*0201 monomer (human, biotinylated, bound to streptavidin-coated plate)
- T1 construct: also called A2; HLA-A2
- assay notes: iTopia, multiparametric iScore
Reported iScore values follow for various binders
parameter measured: iScore

- NGTLAELQG [5T4 9-mer peptide 138]: 0
- HMEGYHYRY [5T4 9-mer peptide 198]: 0.24
- QTSYVFLGI [5T4 9-mer peptide 177]: 0.127
- KWMHNIRDA [5T4 9-mer peptide 192]: 0.45
- DPILPPSLQ [5T4 9-mer peptide 173]: 0
- AELQGLPHI [5T4 9-mer peptide 140]: 0
- LTYVSFRNL [5T4 9-mer peptide 125]: 1.11
- YRYEINADP [5T4 9-mer peptide 201]: 0
